assayed_system: MEF2D/HDAC4 protein-protein interactions (Homo sapiens (Human))
Sequence (Q14814 whole entry, species assumed): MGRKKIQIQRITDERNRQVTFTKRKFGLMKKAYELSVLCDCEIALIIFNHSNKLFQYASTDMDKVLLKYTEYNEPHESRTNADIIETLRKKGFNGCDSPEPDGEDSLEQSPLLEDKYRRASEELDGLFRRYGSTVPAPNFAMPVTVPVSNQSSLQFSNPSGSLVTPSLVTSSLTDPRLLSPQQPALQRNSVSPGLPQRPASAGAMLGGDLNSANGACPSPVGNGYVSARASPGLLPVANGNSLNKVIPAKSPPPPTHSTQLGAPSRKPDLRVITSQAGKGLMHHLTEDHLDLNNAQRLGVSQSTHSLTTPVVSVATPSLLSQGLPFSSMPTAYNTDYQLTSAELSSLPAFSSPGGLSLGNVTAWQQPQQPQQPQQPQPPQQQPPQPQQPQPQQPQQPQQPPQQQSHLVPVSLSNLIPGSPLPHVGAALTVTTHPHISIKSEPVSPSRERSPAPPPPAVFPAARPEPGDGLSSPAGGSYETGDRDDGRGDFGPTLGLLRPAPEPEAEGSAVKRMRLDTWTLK
run_description: Mammalian two-hybrid assay, inhibition of MEF2D and HDAC4 protein interactions (luciferase reporter in HeLa cells)
reported_conditions: HeLa cells co-transfected with GAL4-MEF2D, HDAC4-VP16 and Gal4Luc; overnight treatment; luciferase normalized to Renilla
Counter-ions that a name gives are not always drawn.
Would you mind telling me the reported IC50 of each entry?
One number for each entry, in nM.

CCOC(=O)NC(CCCCC(=O)NCc1cncc(OCC)c1)C(=O)NCc1cncc(OCC)c1 (stereo not drawn) [ST129] = 20000
CCCCNC(CCCCC(=O)Nc1ccccc1N)C(=O)Nc1cccc(Br)c1 (stereo not drawn) [ST88] = 7320
Nc1ccccc1NC(=O)CCCCC(NC(=O)c1ccccc1)C(=O)Nc1cccc(Br)c1 (stereo not drawn) [ST92] = 810

For each entry beneath this line, provide reported IC50.
1. COC(=O)N[C@@H](CCCCC(=O)Nc1ccccc1N)C(=O)Nc1cccc(Br)c1 [ST103]
2. O=C(/C=C/c1cccc(CNc2cccc(OCC(F)F)c2)c1)NO [ST45]
3. CCOC(=O)NC(CCCCC(=O)Nc1ccccc1N)C(=O)Nc1cncc(OC)c1 (stereo not drawn) [ST124]
4. Nc1ccccc1NC(=O)/C=C/c1cccc(CNc2cccc(N3CCOCC3)c2)c1 [ST8]

[350, 560, 1530, 2400]

For each entry beneath this line, provide reported IC50.
1. Nc1ccccc1NC(=O)/C=C/c1cccc(CNc2cccc(OC3CC3)c2)c1 [ST7]
2. COC(=O)NC(CCCCC(=O)Nc1ccccc1N)C(=O)Nc1cccc(OCC(F)(F)F)c1 (stereo not drawn) [ST102, hydrochloride]

1600
940
